# Test system: TCG codon, mammalian cells
# protocol.notes: TCG codon recoding efficiency of all amino acids (Table 1)
# Type: cell-based
# condition.parameters: TCG codon recoding of the unnatural amino acid with the aaRS and mutation of the same table line; numeric values
Field: label. Allowed values: Fulfilled (Recoding rate (%) < 70%) or Not fulfilled (Recoding rate (%) >= 70%).

Below, 5 molecules whose answers are already recorded.
Here's an entry: N[C@@H](Cc1cccc(C(F)(F)F)c1)C(=O)O . Is its Recoding rate (%) below 70%?
Not fulfilled

Given COc1ccc2c(C[C@H](N)C(=O)O)c[nH]c2c1 [compound 327] , is recorded Recoding rate (%) strictly lower than 70%?
Not fulfilled

Is Recoding rate (%) strictly under 70% for the entry N[C@@H](Cc1cncs1)C(=O)O ?
Not fulfilled

For this molecule, is Recoding rate (%) lower than 70%? CCCCCSC[C@H](N)C(=O)O
Not fulfilled

I'd appreciate it if you could check whether N#Cc1cccc(C[C@H](N)C(=O)O)c1 [compound 235] has Recoding rate (%) smaller than 70%.
Not fulfilled

Consider the additional molecule presented here.
Here's an entry: COc1ccc(C[C@H](N)C(=O)O)cc1 [compound 365] . Is its Recoding rate (%) below 70%?
Not fulfilled

###

Would you mind telling me the reported Recoding rate (%) of each entry?
# Tested on: TCG codon, mammalian cells
# protocol.notes: TCG codon recoding efficiency of all amino acids (Table 1)
# Format: cell-based
# condition.parameters: TCG codon recoding of the unnatural amino acid with the aaRS and mutation of the same table line; numeric values
Numbers only, in %.

Worked examples, 5 molecules total:
Notebook: pull reported Recoding rate (%) for TCG codon, mammalian cells, entry N[C@@H](Cc1ccccc1[N+](=O)[O-])C(=O)O [compound 232]
72

Param readout = Recoding rate (%); param system = TCG codon, mammalian cells; param query = N[C@@H](Cc1ccc(OS(=O)(=O)F)cc1)C(=O)O [compound 372] ; response: value
70

// map N[C@@H](Cc1c[nH]c2c(Cl)cccc12)C(=O)O [compound 301] to recorded Recoding rate (%) (system: TCG codon, mammalian cells)
71

Quick check: Recoding rate (%) on TCG codon, mammalian cells, item N[C@@H](Cc1ccc2c(c1)C(=O)C1C=CC=CC1N2)C(=O)O (stereo partly drawn) [compound 277] ?
63

State its Recoding rate (%) on TCG codon, mammalian cells: Cc1ccc2c(C[C@H](N)C(=O)O)c[nH]c2c1 [compound 290]
76

Then this molecule:
Give TCG codon, mammalian cells Recoding rate (%) for N[C@@H](Cc1cccc(I)c1)C(=O)O [compound 286]
61
